The origin of these recorded values is the supplement of paper PMC4862054.

- Tested on: CAL-148
- test-name: normalised response (% of control), CellTiter-Glo; higher = more viable cells (100 = DMSO, 0 = benzethonium chloride kill control)
- experimental-setup: incubation time: 72 h
The entries below are paired with their reported normalised response.
Give just the numeric value; % need not be written.

compound	tested-on	normalised response, %
CC(=O)N(O)CCCCCNC(=O)CCC(=O)N(O)CCCCCNC(=O)CCC(=O)N(O)CCCCCN [Deferoxamine] (100 nM)	CAL-148	88.7
C[C@]1(O)C[C@@H](c2nc(-c3ccc4ccc(-c5ccccc5)nc4c3)c3c(N)nccn32)C1 [Linsitinib] (100 nM)	CAL-148	90

Attention now shifts to the item below.
Hello, please tell me recorded normalised response for this one: COc1cc2c(cc1O)CC[C@@H]1[C@@H]2CC[C@]2(C)[C@@H](O)CC[C@@H]12 [2-methoxyestradiol] (100 nM)
90.6

* * *

- System: HCC1937
- test-name: normalised response (% of control), CellTiter-Glo; higher = more viable cells (100 = DMSO, 0 = benzethonium chloride kill control)
- experimental-setup: incubation time: 72 h
Use fulfilled when the recorded normalised response is no lower than 90%; use not fulfilled when it is lower.

Reference set (6 entries):
molecule	assigned-category
Cn1cc(C2=Nc3cc(NC(=O)C(N)C4CCCCC4)cc4c3C2=CNNC4=O)cn1 (centres undefined) (1 nM)	fulfilled
O=NN(CCCl)C(=O)NCCCl [Carmustine] (1000 nM)	fulfilled
Nc1ncn([C@@H]2O[C@H](CO)[C@@H](O)[C@H]2O)c(=O)n1 [Azacitidine] (10 nM)	fulfilled
CC[C@@H]1C(=O)OC[C@@H]1Cc1cncn1C [Pilocarpine] (4 nM)	fulfilled
CC(=O)O[C@@]12CO[C@@H]1C[C@H](O)[C@@]1(C)C(=O)[C@H](O)C3=C(C)[C@@H](OC(=O)[C@H](O)[C@@H](NC(=O)OC(C)(C)C)c4ccccc4)C[C@@](O)([C@@H](OC(=O)c4ccccc4)[C@H]21)C3(C)C [Docetaxel] (1 nM)	not fulfilled
Oc1ncnc2[nH]ncc12 [Allopurinol] (1000 nM)	fulfilled

Could you tell me if the measured normalised response of Cc1sc2c(c1C)C(c1ccc(Cl)cc1)=N[C@@H](CC(=O)OC(C)(C)C)c1nnc(C)n1-2 [(+)JQ1] (1000 nM) reaches 90% or more?
not fulfilled

* * *

The entries below are paired with their reported normalised response.
- Tested on: BT-474
- test-name: normalised response (% of control), CellTiter-Glo; higher = more viable cells (100 = DMSO, 0 = benzethonium chloride kill control)
- experimental-setup: incubation time: 72 h
Give just the numeric value; % need not be written.

compound	observed-value
CC[C@@H]1C(=O)OC[C@@H]1Cc1cncn1C [Pilocarpine] (4 nM)	91.7

Hello, please tell me recorded normalised response for this one: O=C1CN2Cc3c(ccc(Cl)c3Cl)N=C2N1 [Anagrelide] (1 nM)
90.6

Hello, please tell me recorded normalised response for this one: Cc1ccc([N+](=O)[O-])cc1S(=O)(=O)N(C)/N=C/c1cnc2ccc(Br)cn12 [PIK-75] (1 nM)
89.6

* * *

- System: DU-4475
- test-name: normalised response (% of control), CellTiter-Glo; higher = more viable cells (100 = DMSO, 0 = benzethonium chloride kill control)
- experimental-setup: incubation time: 72 h
The entries below are paired with their reported normalised response.
Give just the numeric value; % need not be written.

Before answering, review these 5 worked examples.
compound	tested-on	value-units	normalised response
Nc1nc2[nH]cnc2c(=S)[nH]1 [Thioguanine] (1000 nM)	DU-4475	%	88.5
Cn1cc(C2=Nc3cc(NC(=O)C(N)C4CCCCC4)cc4c3C2=CNNC4=O)cn1 (stereo unspecified) (1000 nM)	DU-4475	%	89
Nc1ncn([C@@H]2O[C@H](CO)[C@@H](O)[C@H]2O)c(=O)n1 [Azacitidine] (1000 nM)	DU-4475	%	90.5
C[C@]12CC[C@@H]3c4ccc(OC(=O)N(CCCl)CCCl)cc4CC[C@H]3[C@@H]1CC[C@@H]2O [Estramustine] (1 nM)	DU-4475	%	89.3
CC1(C)CCC(CN2CCN(c3ccc(C(=O)NS(=O)(=O)c4ccc(NCC5CCOCC5)c([N+](=O)[O-])c4)c(Oc4cnc5[nH]ccc5c4)c3)CC2)=C(c2ccc(Cl)cc2)C1 [ABT-199] (1000 nM)	DU-4475	%	90.6

Attention now shifts to the item below.
Hello, please tell me recorded normalised response for this one: COc1cc(F)c(F)c(Nc2ccc(I)cc2F)c1NS(=O)(=O)C1(C[C@H](O)CO)CC1 [Refametinib] (10 nM)
92

* * *

The entries below are paired with their reported normalised response.
- Test system: HCC1143
- test-name: normalised response (% of control), CellTiter-Glo; higher = more viable cells (100 = DMSO, 0 = benzethonium chloride kill control)
- experimental-setup: incubation time: 72 h
Kindly write the number and append the unit.

Before answering, review these 2 worked examples.
molecule	observed-value
CC[C@@H]1C(=O)OC[C@@H]1Cc1cncn1C [Pilocarpine] (4000 nM)	92.2%
C[C@]1(O)C[C@@H](c2nc(-c3ccc4ccc(-c5ccccc5)nc4c3)c3c(N)nccn32)C1 [Linsitinib] (1 nM)	91.7%

Attention now shifts to the item below.
Report measured normalised response on HCC1143; entry: Cc1ccc([N+](=O)[O-])cc1S(=O)(=O)N(C)/N=C/c1cnc2ccc(Br)cn12 [PIK-75] (10 nM)
90.2%
